- TARGET: PKR(wt) (Homo sapiens, UniProt P30613)
- Sequence (P30613 whole entry): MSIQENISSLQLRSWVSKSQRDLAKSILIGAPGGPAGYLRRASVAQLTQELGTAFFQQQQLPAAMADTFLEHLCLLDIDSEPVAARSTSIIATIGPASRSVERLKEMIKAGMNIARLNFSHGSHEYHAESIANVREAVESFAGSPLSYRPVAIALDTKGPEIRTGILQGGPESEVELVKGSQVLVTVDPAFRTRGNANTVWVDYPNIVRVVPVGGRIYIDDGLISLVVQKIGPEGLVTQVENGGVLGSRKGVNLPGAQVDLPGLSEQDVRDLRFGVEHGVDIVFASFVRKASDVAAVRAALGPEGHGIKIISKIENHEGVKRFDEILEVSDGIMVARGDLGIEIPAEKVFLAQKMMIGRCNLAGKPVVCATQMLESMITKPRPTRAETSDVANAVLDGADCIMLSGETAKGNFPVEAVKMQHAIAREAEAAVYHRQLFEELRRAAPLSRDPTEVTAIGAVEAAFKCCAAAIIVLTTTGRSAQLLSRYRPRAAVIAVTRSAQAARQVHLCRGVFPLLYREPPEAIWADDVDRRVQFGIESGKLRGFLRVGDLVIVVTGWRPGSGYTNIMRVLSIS
- ASSAY_NOTES: Luminescence Biochemical Assay (Kinase Glo Plus), wild type PKR
- SETTINGS: without FBP, read-out: AC50 LUM KGP woFBP MAX % FOLD mean
- Protocol: In some embodiments, a PKR Activating Compound can have: (1) an AC50 value of less than 0.1 μM (e.g., compounds with AC50 values of “+++” in Table 13), 0.1-1.0 μM (e.g., compounds with AC50 values of “++” in Table 13), or 1.01-40 μM (e.g., compounds with AC50 values of “+” in Table 13); (2) a MAX % Fold of 75%-250%, 250-500%, or 75%-500%; and/or (3) a % Fold@1.54 μM of 75%-250%, 250-500%, or 75%-500%. […]
MEASUREMENT_NAME: Emax

INSERT INTO measurements (molecule, endpoint_value) VALUES
  ('Cc1nc(CC(=O)N2CC3=C(C2)CN(S(=O)(=O)c2ccc(OC(F)F)cc2)C3)cs1 [Example 18-20]', '250 to 500%'),
  ('Cc1cccc(Cl)c1S(=O)(=O)N1CC2=C(CN(C(=O)[C@@H](O)c3ccccc3)C2)C1 [Example 18-54]', '75 to 250%'),
  ('COc1cc(Cl)ccc1S(=O)(=O)N1CC2=C(CN(C(=O)[C@H](O)c3ccccc3)C2)C1 [Example 18-58]', '75 to 250%'),
  ('CC(C)Oc1ccc(S(=O)(=O)N2CC3=C(CN(C(=O)[C@H](O)c4ccccc4)C3)C2)cc1 [Example 18-12]', '75 to 250%'),
  ('O=C([C@H](O)c1ccccc1)N1CC2=C(C1)CN(S(=O)(=O)c1cc(F)ccc1Cl)C2 [Example 18-57]', '75 to 250%'),
  ('Cc1cnc(C(=O)N2CC3=C(C2)CN(S(=O)(=O)c2ccc4occc4c2)C3)cn1 [Example 18-82]', '75 to 250%'),
  ('O=C(Cc1cccnc1)N1CC2=C(C1)CN(S(=O)(=O)c1ccc(OC(F)F)cc1)C2 [Example 18-26]', '250 to 500%'),
  ('O=C([C@H]1CCCO1)N1CC2=C(C1)CN(S(=O)(=O)c1cccnc1)C2 [Example 18-59]', '75 to 250%');
